The origin of these recorded values is patent EP3564214B1.

# Tested on: CB receptor-associated G-proteins
# Assay info: Ligand stimulated [35S]GTPγS binding assay in rat brain membrane homogenate
# Assay type: biochemical
# Condition label: rat brain membrane homogenate
Measure name: G-protein stimulation (functional character)

Incoming: Can you look up the measured G-protein stimulation (functional character) of CC(C)[C@H](NC(=O)c1nn(Cc2ccc(Cl)cc2Cl)c2ccccc12)C(N)=O for me?
Outgoing: partial agonists

Incoming: Lookup CC(C)(C)[C@H](NC(=O)c1nn(Cc2ccc(Cl)cc2Cl)c2ccccc12)C(N)=O
Outgoing: partial agonists

Incoming: Lookup CC(C)C[C@H](NC(=O)c1nn(Cc2ccc(Cl)cc2Cl)c2ccccc12)C(N)=O
Outgoing: partial agonists
